Numbers sourced from patent US20260297060A1.

- PROCEDURE_SUMMARY: Pharmacokinetics in female BALB/c nude mice bearing A375 xenografts, 1 day dosing (PK and PD study): plasma, tumor and brain concentrations, AUC
- Type: in vivo
- RECORDED_CONDITIONS: mouse, tumor, po, 1.5 mg/kg, Compound 141; 1.5 mg/kg p.o. BID × 1 day; post 2nd dose; 4 h; read-out: Mean Concentration in Tumor ± SEM
PROPERTY_LABEL: concentration at 4 h

1. CCN(C)S(=O)(=O)Nc1ccc(F)c(Oc2ccc3ncn(C4CC5(CCN(C6CC7(C6)CN(c6cc8c(cc6F)c(N6CCC(=O)NC6=O)nn8C)C7)CC5)C4)c(=O)c3c2)c1C#N (stereo not shown) [Compound 141]    214 ng/g

====

- PROCEDURE_SUMMARY: Pharmacokinetics after 21 days dosing in the efficacy study (plasma, tumor and brain concentrations; plasma AUC at steady state), Example 14
- Format: in vivo, female BALB/c nude mice
- RECORDED_CONDITIONS: mouse, plasma, po; 10 mg/kg p.o. BID x 21 days; 4 h; mean ± SEM; read-out: Concentration in Plasma
PROPERTY_LABEL: concentration at 4 h (ng/mL)

1. CCN(C)S(=O)(=O)Nc1ccc(F)c(Oc2ccc3ncn([C@H]4COC5(CCN(C6CC7(C6)CN(c6cc8c(cc6F)c(N6CCC(=O)NC6=O)nn8C)C7)CC5)C4)c(=O)c3c2)c1C#N    15100

====

- TESTED_ON: BRAF V600E (Homo sapiens, UniProt P15056+Q96SW2, V600E)
- Construct: knock-in of the HiBiT tag to the endogenous BRAF V600E locus; host or cells: A375.10 (A375 clonal line, CRISPR HiBiT knock-in at the endogenous BRAF V600E locus)
- Sequence (P15056 whole entry V600E): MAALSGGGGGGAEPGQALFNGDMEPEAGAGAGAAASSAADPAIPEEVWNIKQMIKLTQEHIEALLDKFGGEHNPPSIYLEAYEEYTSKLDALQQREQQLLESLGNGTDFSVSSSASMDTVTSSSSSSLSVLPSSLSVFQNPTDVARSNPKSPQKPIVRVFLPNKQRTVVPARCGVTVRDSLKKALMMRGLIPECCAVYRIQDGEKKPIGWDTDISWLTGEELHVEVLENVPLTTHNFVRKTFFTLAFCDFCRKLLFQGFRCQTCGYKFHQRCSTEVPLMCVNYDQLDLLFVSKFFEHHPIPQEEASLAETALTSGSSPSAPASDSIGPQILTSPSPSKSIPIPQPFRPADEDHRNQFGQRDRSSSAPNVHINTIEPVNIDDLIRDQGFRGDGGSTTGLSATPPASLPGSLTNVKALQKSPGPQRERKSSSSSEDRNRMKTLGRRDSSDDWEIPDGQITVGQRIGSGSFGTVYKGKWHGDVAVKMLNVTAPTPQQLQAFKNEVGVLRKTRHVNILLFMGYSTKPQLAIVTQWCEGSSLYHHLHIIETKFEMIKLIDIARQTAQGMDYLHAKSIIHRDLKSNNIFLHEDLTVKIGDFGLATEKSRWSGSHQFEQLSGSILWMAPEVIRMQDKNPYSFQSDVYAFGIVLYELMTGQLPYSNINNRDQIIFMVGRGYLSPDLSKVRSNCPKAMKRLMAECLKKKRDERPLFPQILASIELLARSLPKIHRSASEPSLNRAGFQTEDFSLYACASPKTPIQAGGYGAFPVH
- Sequence (Q96SW2 whole entry): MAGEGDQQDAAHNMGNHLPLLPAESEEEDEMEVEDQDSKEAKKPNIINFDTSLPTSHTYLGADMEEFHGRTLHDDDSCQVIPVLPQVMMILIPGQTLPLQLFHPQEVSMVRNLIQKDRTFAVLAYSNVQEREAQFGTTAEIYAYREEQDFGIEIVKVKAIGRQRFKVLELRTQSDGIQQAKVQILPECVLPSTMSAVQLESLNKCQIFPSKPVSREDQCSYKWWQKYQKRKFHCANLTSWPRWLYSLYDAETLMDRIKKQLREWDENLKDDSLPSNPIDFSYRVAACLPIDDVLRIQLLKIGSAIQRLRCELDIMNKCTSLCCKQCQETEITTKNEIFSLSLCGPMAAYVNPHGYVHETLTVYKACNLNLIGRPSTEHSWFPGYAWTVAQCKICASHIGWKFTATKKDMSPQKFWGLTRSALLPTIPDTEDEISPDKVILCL
- Sequence (Q16531 whole entry partner): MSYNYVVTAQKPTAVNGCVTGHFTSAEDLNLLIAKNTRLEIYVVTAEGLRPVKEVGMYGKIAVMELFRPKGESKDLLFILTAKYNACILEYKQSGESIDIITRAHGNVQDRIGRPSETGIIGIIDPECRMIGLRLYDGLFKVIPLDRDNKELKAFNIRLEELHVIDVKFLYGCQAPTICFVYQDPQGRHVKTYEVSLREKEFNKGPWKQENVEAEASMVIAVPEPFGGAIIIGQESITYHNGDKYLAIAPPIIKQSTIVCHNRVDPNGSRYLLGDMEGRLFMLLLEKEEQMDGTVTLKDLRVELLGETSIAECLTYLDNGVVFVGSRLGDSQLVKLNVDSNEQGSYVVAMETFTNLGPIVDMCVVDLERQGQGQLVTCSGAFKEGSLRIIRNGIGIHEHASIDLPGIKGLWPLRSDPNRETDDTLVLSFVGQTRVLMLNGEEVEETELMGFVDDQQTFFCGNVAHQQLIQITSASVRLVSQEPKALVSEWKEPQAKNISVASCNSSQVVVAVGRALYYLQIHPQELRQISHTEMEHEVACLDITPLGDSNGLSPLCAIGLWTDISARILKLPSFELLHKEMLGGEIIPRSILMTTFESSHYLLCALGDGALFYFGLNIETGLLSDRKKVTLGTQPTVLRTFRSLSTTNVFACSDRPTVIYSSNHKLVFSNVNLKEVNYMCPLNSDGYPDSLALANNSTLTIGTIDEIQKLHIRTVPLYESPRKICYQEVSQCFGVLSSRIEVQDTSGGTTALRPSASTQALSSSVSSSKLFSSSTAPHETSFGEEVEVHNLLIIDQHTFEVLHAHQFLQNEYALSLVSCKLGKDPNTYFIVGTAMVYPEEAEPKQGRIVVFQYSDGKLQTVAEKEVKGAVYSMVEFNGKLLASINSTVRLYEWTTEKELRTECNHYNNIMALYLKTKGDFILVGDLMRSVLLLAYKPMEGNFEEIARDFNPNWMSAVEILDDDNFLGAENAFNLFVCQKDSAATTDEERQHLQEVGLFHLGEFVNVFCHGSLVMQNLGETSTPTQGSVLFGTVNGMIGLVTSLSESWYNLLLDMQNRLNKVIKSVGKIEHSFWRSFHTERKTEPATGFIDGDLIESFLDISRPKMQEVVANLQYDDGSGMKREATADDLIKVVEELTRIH
- PROCEDURE_SUMMARY: BRAF V600E HiBiT Degradation Assay
- Type: cell-based
- RECORDED_CONDITIONS: A375.10 cells, BRAF V600E, 2 hours; read-out: HiBiT-Degradation A375.10 BRAF 2 hours DC50
PROPERTY_LABEL: DC50

1) Cn1nc(N2CCC(=O)NC2=O)c2cc(F)c(N3CC4(CC(N5CCC6(CC5)CC(n5cnc7ccc(Oc8c(F)ccc(NS(=O)(=O)N9C[C@H]%10C[C@H]%10C9)c8C#N)cc7c5=O)C6)C4)C3)cc21 (stereo partly drawn) [Compound 277]    < 1000 nM
2) CCN(C)S(=O)(=O)Nc1ccc(F)c(Oc2ccc3ncn(C4CCN(C5CC6(CCN(c7cc8c(cc7F)c(N7CCC(=O)NC7=O)nn8C)CC6)C5)CC4)c(=O)c3c2)c1C#N [Compound 274]    < 1000 nM
3) CCN(C)S(=O)(=O)Nc1ccc(F)c(Oc2ccc3ncn(C4CC5(CCN(C6COC7(CCN(c8cc9c(cc8F)c(N8CCC(=O)NC8=O)nn9C)CC7)C6)CC5)C4)c(=O)c3c2)c1C#N (stereo not drawn) [Compound 216]    < 1000 nM
4) CCN(C)S(=O)(=O)Nc1ccc(F)c(Oc2ccc3ncn([C@H]4COC5(CCC(N6CC7(CN(c8cc9c(cc8F)c(N8CCC(=O)NC8=O)nn9C)C7)C6)CC5)C4)c(=O)c3c2)c1C#N (stereo partly drawn) [Compound 27]    < 1000 nM
5) CCN(C)S(=O)(=O)Nc1ccc(F)c(Oc2ccc3ncn([C@H]4COC5(CCN(C6CCC(c7ccc(NC8CCC(=O)NC8=O)cc7F)CC6)CC5)C4)c(=O)c3c2)c1F (single isomer, unassigned) [Compound 78]    < 1000 nM
6) Cn1nc(N2CCC(=O)NC2=O)c2cc(F)c(C3CCC(N4CCC5(CC4)CC(n4cnc6ccc(Oc7c(F)ccc(NS(=O)(=O)N8CC[C@@H](F)C8)c7C#N)cc6c4=O)C5)CC3)cc21 (single isomer, unassigned) [Compound 123]    < 1000 nM
7) CCN(C)S(=O)(=O)Nc1ccc(F)c(Oc2ccc3ncn(C4CCC5(CC4)CCN(C4CCC(c6ccc(NC7CCC(=O)NC7=O)cc6F)CC4)CC5)c(=O)c3c2)c1C#N (single isomer, unassigned) [Compound 10]    > 10000 nM
8) CCN(C)S(=O)(=O)Nc1ccc(F)c(Oc2ccc3ncn([C@@H]4COC5(CCN(C6CCC(c7ccc(NC8CCC(=O)NC8=O)cc7F)CC6)CC5)C4)c(=O)c3c2F)c1C#N (single isomer, unassigned) [Compound 52]    < 1000 nM
9) CCN(C)S(=O)(=O)Nc1ccc(F)c(Oc2ccc3ncc(OCC4(F)CCN(C5CCC(c6cc7c(cc6F)c(N6CCC(=O)NC6=O)nn7C)CC5)CC4)nc3c2)c1C#N (single isomer, unassigned) [Compound 228]    1000 to 10000 nM

====

- TESTED_ON: BRAF V600E (Homo sapiens, UniProt P15056+Q96SW2, V600E)
- Construct: knock-in of the HiBiT tag to the endogenous BRAF V600E locus; host or cells: A375.10 (A375 clonal line, CRISPR HiBiT knock-in at the endogenous BRAF V600E locus)
- PROCEDURE_SUMMARY: BRAF V600E HiBiT Degradation Assay
- Format: cell-based
- RECORDED_CONDITIONS: read-out: HiBiT-Degradation A375.10 BRAF 2 hours Emax, A375.10 cells, BRAF V600E, 2 hours; residual protein remaining
Measured Emax by item
PROPERTY_LABEL: Emax

1) CCN(C)S(=O)(=O)Nc1ccc(F)c(Oc2ccc3ncc([C@H]4COC5(CCN(C6CCC(c7ccc(NC8CCC(=O)NC8=O)cc7F)CC6)CC5)C4)nc3c2)c1C#N (single isomer, unassigned)    < 50%
2) COC1CN(S(=O)(=O)Nc2ccc(F)c(Oc3ccc4ncn(C5CC6(CCN(C7CC8(C7)CN(c7cc9c(cc7F)c(N7CCC(=O)NC7=O)nn9C)C8)CC6)C5)c(=O)c4c3)c2C#N)C1 (centres unmarked)    < 50%
3) CCN(C)S(=O)(=O)Nc1ccc(F)c(Oc2ccc3ncc(C4CC5(CCN(C6CC7(C6)CN(c6cc8c(cc6F)c(N6CCC(=O)NC6=O)nn8C)C7)CC5)C4)nc3c2)c1C#N (centres unmarked)    < 50%
4) CCN(C)S(=O)(=O)Nc1ccc(F)c(Oc2ccc3ncc(C4CC5(CCN(C6CCC(c7cc8c(cc7F)c(N7CCC(=O)NC7=O)nn8C)CC6)CC5)C4)nc3c2)c1C#N (single isomer, unassigned)    < 50%
5) Cn1nc(N2CCC(=O)NC2=O)c2cc(F)c(N3CC4(CC(N5CCC6(CC5)C[C@@H](n5cnc7ccc(Oc8c(F)ccc(NS(=O)(=O)N9CC[C@@H](F)C9)c8C#N)cc7c5=O)CO6)C4)C3)cc21    50 to 90%

====

- PROCEDURE_SUMMARY: Pharmacokinetics after 21 days dosing in the efficacy study (plasma, tumor and brain concentrations; plasma AUC at steady state), Example 14
- Assay type: in vivo, female BALB/c nude mice
- RECORDED_CONDITIONS: mouse, plasma, po; 3 mg/kg p.o. BID x 21 days; 0.5 h; mean ± SEM
PROPERTY_LABEL: concentration at 0.5 h (ng/mL)

1. CCN(C)S(=O)(=O)Nc1ccc(F)c(Oc2ccc3ncn([C@H]4COC5(CCN(C6CC7(C6)CN(c6cc8c(cc6F)c(N6CCC(=O)NC6=O)nn8C)C7)CC5)C4)c(=O)c3c2)c1C#N [Compound 26]    4860

====

- TESTED_ON: BRAF V600E (Homo sapiens, UniProt P15056+Q96SW2, V600E)
- Construct: knock-in of the HiBiT tag to the endogenous BRAF V600E locus; host or cells: A375.10 (A375 clonal line, CRISPR HiBiT knock-in at the endogenous BRAF V600E locus)
- PROCEDURE_SUMMARY: BRAF V600E HiBiT Degradation Assay
- Assay type: cell-based
- RECORDED_CONDITIONS: read-out: HiBiT-Degradation A375.10 BRAF 2 hours Emax, A375.10 cells, BRAF V600E, 2 hours; residual protein remaining
PROPERTY_LABEL: Emax

1. Cn1nc(N2CCC(=O)NC2=O)c2cc(F)c(N3CC4(CC(N5CCC6(CC5)CC(n5cnc7ccc(Oc8c(F)ccc(NS(=O)(=O)C9CCC9)c8C#N)cc7c5=O)C6)C4)C3)cc21 [Compound 259]    < 50%
2. CO[C@@H]1CCN(S(=O)(=O)Nc2ccc(F)c(Oc3ccc4ncn([C@H]5COC6(CCN(C7CC8(C7)CN(c7cc9c(cc7F)c(N7CCC(=O)NC7=O)nn9C)C8)CC6)C5)c(=O)c4c3)c2C#N)C1 [Compound 144]    50 to 90%
3. CO[C@H]1CCN(S(=O)(=O)Nc2ccc(F)c(Oc3ccc4ncn([C@H]5COC6(CCN(C7CC8(C7)CN(c7cc9c(cc7F)c(N7CCC(=O)NC7=O)nn9C)C8)CC6)C5)c(=O)c4c3)c2C#N)C1 [Compound 157]    50 to 90%
